B1: Hairpin Ribozyme (parent)
chain: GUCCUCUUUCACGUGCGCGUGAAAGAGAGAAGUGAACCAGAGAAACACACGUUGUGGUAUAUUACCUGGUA

- Variants of: B1
- Assay Summary: self-cleavage, relative activity (ratio to wild type); higher = more cleavage; co-transcriptional
Recorded self-cleavage values for a group of variants are listed next.
Outcome Measure: self-cleavage

[[record]]
variant_annotation = "U9C A44G"
outcome_measure = "self-cleavage"
assay_result = 0.19

[[record]]
variant_annotation = "C10U A22U"
outcome_measure = "self-cleavage"
assay_result = 0.373

[[record]]
variant_annotation = "G19A A64C"
outcome_measure = "self-cleavage"
assay_result = 0.181

[[record]]
variant_annotation = "A41C A47G"
outcome_measure = "self-cleavage"
assay_result = 0.0213

[[record]]
variant_annotation = "A11C G27A"
outcome_measure = "self-cleavage"
assay_result = 0.403

[[record]]
variant_annotation = "U7A G25U"
outcome_measure = "self-cleavage"
assay_result = 0.229

[[record]]
variant_annotation = "A44C A45G"
outcome_measure = "self-cleavage"
assay_result = 0.208

[[record]]
variant_annotation = "G56C U67G"
outcome_measure = "self-cleavage"
assay_result = 0.203

[[record]]
variant_annotation = "C18U U63A"
outcome_measure = "self-cleavage"
assay_result = 0.229

[[record]]
variant_annotation = "A41C U53C"
outcome_measure = "self-cleavage"
assay_result = 0.822

[[record]]
variant_annotation = "C16G C46G"
outcome_measure = "self-cleavage"
assay_result = 0.183

[[record]]
variant_annotation = "G13C A24C"
outcome_measure = "self-cleavage"
assay_result = 0.466

[[record]]
variant_annotation = "G15A A39C"
outcome_measure = "self-cleavage"
assay_result = 0.508

[[record]]
variant_annotation = "G17U A28U"
outcome_measure = "self-cleavage"
assay_result = 0.51

[[record]]
variant_annotation = "G1A C6G"
outcome_measure = "self-cleavage"
assay_result = 0.193

[[record]]
variant_annotation = "A39U G57U"
outcome_measure = "self-cleavage"
assay_result = 0.123

[[record]]
variant_annotation = "A26U A41G"
outcome_measure = "self-cleavage"
assay_result = 0.841

[[record]]
variant_annotation = "C38G C46U"
outcome_measure = "self-cleavage"
assay_result = 0.116

[[record]]
variant_annotation = "G42U U62A"
outcome_measure = "self-cleavage"
assay_result = 0.2

[[record]]
variant_annotation = "A26C U53A"
outcome_measure = "self-cleavage"
assay_result = 0.521

[[record]]
variant_annotation = "G19C C48G"
outcome_measure = "self-cleavage"
assay_result = 0.165

[[record]]
variant_annotation = "U14A U67C"
outcome_measure = "self-cleavage"
assay_result = 0.247

[[record]]
variant_annotation = "A59C C65U"
outcome_measure = "self-cleavage"
assay_result = 0.23

[[record]]
variant_annotation = "A59C C65G"
outcome_measure = "self-cleavage"
assay_result = 0.246

[[record]]
variant_annotation = "C50A U58A"
outcome_measure = "self-cleavage"
assay_result = 0.183

[[record]]
variant_annotation = "G15C A59G"
outcome_measure = "self-cleavage"
assay_result = 0.104

[[record]]
variant_annotation = "U5C A11G"
outcome_measure = "self-cleavage"
assay_result = 0.481

[[record]]
variant_annotation = "G25A C50A"
outcome_measure = "self-cleavage"
assay_result = 0.107

[[record]]
variant_annotation = "C46A G68C"
outcome_measure = "self-cleavage"
assay_result = 0.277

[[record]]
variant_annotation = "A45U U58G"
outcome_measure = "self-cleavage"
assay_result = 0.123

[[record]]
variant_annotation = "A28U G54C"
outcome_measure = "self-cleavage"
assay_result = 0.219

[[record]]
variant_annotation = "A23C A64G"
outcome_measure = "self-cleavage"
assay_result = 0.646

[[record]]
variant_annotation = "C48A U62A"
outcome_measure = "self-cleavage"
assay_result = 0.14

[[record]]
variant_annotation = "C3G C48G"
outcome_measure = "self-cleavage"
assay_result = 0.196

[[record]]
variant_annotation = "U5C A28G"
outcome_measure = "self-cleavage"
assay_result = 0.358

[[record]]
variant_annotation = "A31U G68C"
outcome_measure = "self-cleavage"
assay_result = 0.175

[[record]]
variant_annotation = "G1U G69U"
outcome_measure = "self-cleavage"
assay_result = 0.101

[[record]]
variant_annotation = "U2A A59U"
outcome_measure = "self-cleavage"
assay_result = 0.141

[[record]]
variant_annotation = "U52A A64G"
outcome_measure = "self-cleavage"
assay_result = 0.603

